Target: Tyrosine-protein phosphatase YopH (Yersinia enterocolitica) (UniProt P15273)
Test: Inhibition of Yersinia enterocolitica recombinant YopH using pNPP as substrate at 25 uM after 10 mins by spectrophotometry
property-measured: inhibition (%)
Answers are plain numbers, in %.

- compound: "O=C(/C=C/c1cc2ccccc2nc1Cl)c1ccc2c(c1)OCO2"
  units-symbol: "%"
  inhibition: 44.2
- compound: "O=C(/C=C/c1cccc([N+](=O)[O-])c1)c1ccc2ccccc2c1"
  units-symbol: "%"
  inhibition: 34.7
- compound: "O=C(/C=C/c1ccc2c(c1)OCO2)c1cccc([N+](=O)[O-])c1"
  units-symbol: "%"
  inhibition: 31.3

I'm hoping you can list inhibition for every compound here, please.
1. O=C(/C=C/c1ccccc1)c1ccc2ccccc2c1
2. CC12C=CC(O1)[C@H]1C(=O)N(c3ccc(S(=O)(=O)N/N=C/c4ccc(Cl)c(Cl)c4)cc3)C(=O)[C@H]12 (some centres not stated)
3. O=C1c2cccc3c(Cl)ccc(c23)C(=O)N1Cc1ccc(S(=O)(=O)N2CCOCC2)cc1

1. 30.9
2. 45.6
3. 82.1

I'm hoping you can list inhibition for every compound here, please.
1. O=C(/C=C/c1cccc2ccccc12)c1ccc2ccccc2c1
2. O=C(/C=C/c1ccc(-c2cc(C(F)(F)F)ccc2Cl)o1)c1ccc2c(c1)OCO2
3. O=C1[C@@H]2C3C=CC(O3)[C@@H]2C(=O)N1c1ccc(S(=O)(=O)N2CCCC2)cc1
4. COc1ccc2nc(Cl)c(/C=C/C(=O)c3ccc4ccccc4c3)cc2c1
5. O=C(/C=C/c1ccc2c(c1)OCO2)c1ccc([N+](=O)[O-])cc1
6. O=C(/C=C/c1ccc2ccccc2c1)c1ccc2ccccc2c1

[26.5, 33.8, 76.4, 34.6, 65.7, 66.9]

* * *

Biological target: Tyrosine-protein phosphatase YopH (Yersinia enterocolitica, UniProt P15273)
Sequence (P15273 whole entry): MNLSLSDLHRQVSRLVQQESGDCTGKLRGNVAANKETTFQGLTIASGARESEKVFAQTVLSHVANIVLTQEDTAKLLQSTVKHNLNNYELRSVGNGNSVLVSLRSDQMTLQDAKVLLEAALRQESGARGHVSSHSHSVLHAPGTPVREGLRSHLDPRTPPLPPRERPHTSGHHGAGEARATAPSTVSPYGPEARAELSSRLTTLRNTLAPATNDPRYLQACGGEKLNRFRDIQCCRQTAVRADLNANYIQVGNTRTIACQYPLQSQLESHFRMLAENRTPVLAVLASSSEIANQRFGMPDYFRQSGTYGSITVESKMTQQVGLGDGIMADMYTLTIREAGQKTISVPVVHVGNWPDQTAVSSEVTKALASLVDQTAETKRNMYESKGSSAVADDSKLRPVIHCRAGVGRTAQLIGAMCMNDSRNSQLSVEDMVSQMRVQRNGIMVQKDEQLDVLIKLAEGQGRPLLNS
Test: Inhibition of Yersinia enterocolitica recombinant YopH using pNPP as substrate after 10 mins by spectrophotometry
Record form. Attribute: pIC50. Fill in for each entry.
Numbers only, as −log10 of the molar value.

Please review the following examples before continuing.
- molecule: "O=C1[C@@H]2C3C=CC(O3)[C@@H]2C(=O)N1c1ccc(S(=O)(=O)N2CCCC2)cc1"
  readout-value: 5.05
- molecule: "O=C(/C=C/c1ccc2c(c1)OCO2)c1cccc([N+](=O)[O-])c1"
  readout-value: 5.00

I'm hoping you can list pIC50 for every molecule here, please.
1. O=C(/C=C/c1ccc(-c2cc(C(F)(F)F)ccc2Cl)o1)c1ccc2c(c1)OCO2
2. CC12C=CC(O1)[C@H]1C(=O)N(c3ccc(S(=O)(=O)N/N=C/c4ccc(Cl)c(Cl)c4)cc3)C(=O)[C@H]12 (some centres not stated)
3. O=C(/C=C/c1ccccc1)c1ccc2ccccc2c1
4. O=C1c2cccc3c(Cl)ccc(c23)C(=O)N1Cc1ccc(S(=O)(=O)N2CCOCC2)cc1
5. O=C(/C=C/c1ccc2ccccc2c1)c1ccc2ccccc2c1
6. O=C(/C=C/c1ccc2c(c1)OCO2)c1ccc([N+](=O)[O-])cc1

1: 4.41; 2: 4.21; 3: 3.61; 4: 4.81; 5: 4.69; 6: 4.82

I'm hoping you can list pIC50 for every molecule here, please.
1. O=C(/C=C/c1cccc([N+](=O)[O-])c1)c1ccc2ccccc2c1
2. O=C(/C=C/c1cc2ccccc2nc1Cl)c1ccc2c(c1)OCO2
3. O=C(/C=C/c1cccc2ccccc12)c1ccc2ccccc2c1
4. COc1ccc2nc(Cl)c(/C=C/C(=O)c3ccc4ccccc4c3)cc2c1

1: 3.91; 2: 3.93; 3: 3.71; 4: 3.57

* * *

Biological target: Tyrosine-protein phosphatase YopH (Yersinia enterocolitica)
Test: Competitive inhibition of Yersinia enterocolitica recombinant YopH using pNPP as substrate after 10 mins by Line-weaver Burk plot analysis
property-measured: Ki (µM)
Answers are plain numbers, in µM.

Please review the following examples before continuing.
- chemical-string: "O=C(/C=C/c1ccc(-c2cc(C(F)(F)F)ccc2Cl)o1)c1ccc2c(c1)OCO2"
  readout-value: 11.1
- chemical-string: "O=C(/C=C/c1ccc2c(c1)OCO2)c1ccc([N+](=O)[O-])cc1"
  readout-value: 4.4

I'm hoping you can list Ki for every compound here, please.
1. O=C1[C@@H]2C3C=CC(O3)[C@@H]2C(=O)N1c1ccc(S(=O)(=O)N2CCCC2)cc1
2. O=C(/C=C/c1ccc2ccccc2c1)c1ccc2ccccc2c1
3. O=C(/C=C/c1ccc2c(c1)OCO2)c1cccc([N+](=O)[O-])c1

1: 4.4; 2: 14.1; 3: 4.5
